Test system: K562
METHOD: Antiproliferative activity against human K562 cells after 72 hrs by MTT assay
Format: functional, cell-based
TEST_SETTINGS: K562, 72 h
Catalogue of IC50 readings, one per entry.

Specify measured IC50 for C=C(CC[C@@H](C(=O)O)[C@H]1[C@H](O)C[C@@]2(C)C3=CC[C@H]4C(C)(C)[C@@H](OC(C)=O)CC[C@]4(C)C3=CC[C@]12C)C(C)C . 18.6 µM

Specify measured IC50 for C=C(CC[C@@H](C(=O)O)[C@H]1[C@H](O)C[C@@]2(C)C3=CC=C4C(C)(C)C(=O)CC[C@]4(C)C3=CC[C@]12C)C(C)C . > 40 µM

Specify measured IC50 for C=C(CC[C@@H](C(=O)O)[C@H]1CC[C@@]2(C)C3=CC[C@H]4C(C)(C)[C@@H](O)CC[C@]4(C)C3=CC[C@]12C)C(C)C [DEHYDROEBURICOIC ACID] . 25.6 µM

Specify measured IC50 for CC(C)C(=O)CC[C@@H](C(=O)O)[C@H]1[C@H](O)C[C@@]2(C)C3=CC[C@H]4C(C)(C)[C@H](O)CC[C@]4(C)C3=CC[C@]12C . > 40 µM

Read the next record carefully.
Specify measured IC50 for C=C(CC[C@@H](C(=O)O)[C@H]1[C@H](O)C[C@@]2(C)C3=C(CC[C@]12C)[C@@]1(C)CC[C@@H](O)C(C)(C)[C@@H]1CC3=O)C(C)C . > 40 µM
